# Test system: colorectal cancer cell line HT-29
# experiment: Cancer cell proliferation inhibitory activity evaluation 1 (CCK-8), HT-29
# Type: cell-based
# recorded-conditions: Homo sapiens, HT-29; 10 μM, 72 hours, CCK-8; read-out: Cancer cell proliferation inhibitory activity HT29
Catalogue of compounds with associated inhibition at 10 µM
quantity: inhibition at 10 µM

* CCS(=O)(=O)N1CC[C@H](Nc2c(Br)cnc3nc(-c4cc(C)n(-c5cccc(OCCN6CCOCC6)c5)c4C)[nH]c23)C1 [Example 3] | 10 to 50%
* Cc1cc(-c2nc3ncc(Br)c(Nc4cccc(S(N)(=O)=O)c4)c3[nH]2)c(C)n1-c1ccc(OCCN2CCOCC2)cc1 [Example 39] | 10 to 50%
* Cc1cc(-c2nc3c(Nc4cccc(S(N)(=O)=O)c4)c(Br)cnc3[nH]2)c(C)n1-c1ccc(N2CCOCC2)cc1 [Example 40] | > 50%
* CCS(=O)(=O)N1CC[C@H](Nc2c(Br)cnc3nc(-c4cc(C)n(-c5ccc(OCCN6CCOCC6)cc5)c4C)[nH]c23)C1 [Example 4] | > 50%
* Cc1cc(-c2nc3ncc(Br)c(Nc4cccc(S(N)(=O)=O)c4)c3[nH]2)c(C)n1-c1cccc(OCCN2CCOCC2)c1 [Example 38] | > 50%
* CCS(=O)(=O)N1CC[C@H](Nc2c(Br)cnc3[nH]c(-c4cc(C)n(-c5ccccc5Cl)c4C)nc23)C1 [Example 16] | 10 to 50%
* CCS(=O)(=O)N1CC[C@H](Nc2c(Br)cnc3[nH]c(-c4cc(C)n(-c5cc(Cl)ccc5Cl)c4C)nc23)C1 [Example 14] | 10 to 50%
* Cc1ccc(NS(C)(=O)=O)cc1-n1c(C)cc(-c2nc3c(Nc4cccc(S(N)(=O)=O)c4)c(Br)cnc3[nH]2)c1C [Example 33] | < 10%
* CCS(=O)(=O)N1CC[C@H](Nc2c(Br)cnc3[nH]c(-c4cc(C)n(-c5ccc(N6CCOCC6)cc5)c4C)nc23)C1 [Example 1] | 10 to 50%
